Source: ChEMBL document CHEMBL3885861

species: Rattus norvegicus; experiment: Open TG-GATES - Regimen: Daily Repeat; assay type: toxicity, organism-based, Sprague-Dawley; set-up: regimen Daily Repeat, gender Male, age 6 weeks; conditions: in vivo, po, 1000 mg/kg, […], tissue Plasma, route gavage, dose level High, time 7 day
Metric Name: gamma-GTP (IU/L)
Record the value in IU/L, omitting the unit from your answer.

In the examples that follow, each entry is paired with its recorded gamma-GTP.
Line Notation | gamma-GTP [IU/L]
CN/C(=N/CCSCc1nc[nH]c1C)NC#N | 1.8
CCOc1ccc(NC(C)=O)cc1 | 1.2
O=C(OC[C@H]1O[C@@H](OC(=O)c2cc(O)c(O)c(OC(=O)c3cc(O)c(O)c(O)c3)c2)[C@H](OC(=O)c2cc(O)c(O)c(OC(=O)c3cc(O)c(O)c(O)c3)c2)[C@@H](OC(=O)c2cc(O)c(O)c(OC(=O)c3cc(O)c(O)c(O)c3)c2)[C@@H]1OC(=O)c1cc(O)c(O)c(OC(=O)c2cc(O)c(O)c(O)c2)c1)c1cc(O)c(O)c(OC(=O)c2cc(O)c(O)c(O)c2)c1 | 1
Cc1nnc2n1-c1ccc(Cl)cc1C(c1ccccc1Cl)=NC2 | 1
COC(=O)C1=C(C)NC(C)=C(C(=O)OC)C1c1ccccc1[N+](=O)[O-] | 1

Give the measured gamma-GTP of "CNC(=C[N+](=O)[O-])NCCSCc1ccc(CN(C)C)o1" .
0.8
